# Test target: UniProt:Q920D2
# Sequence (Q920D2 whole entry): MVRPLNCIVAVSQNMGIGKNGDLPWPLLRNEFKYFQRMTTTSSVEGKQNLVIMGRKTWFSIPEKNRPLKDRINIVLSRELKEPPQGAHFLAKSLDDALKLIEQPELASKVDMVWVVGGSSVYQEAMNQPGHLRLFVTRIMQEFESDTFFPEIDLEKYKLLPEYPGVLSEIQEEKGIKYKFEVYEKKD
In plain terms, low IC50, meaning strictly below 50 nM, gives yes (1), and everything else gives no (0).

• Nc1nc(N)c2nc(CSc3ccccc3)ccc2n1 = no (0)
• CN(Cc1ccc2nc(N)nc(N)c2n1)c1cc(Cl)ccc1Cl = yes (1)
• CN(Cc1ccc2nc(N)nc(N)c2n1)c1ccccc1Cl = no (0)
• Nc1nc(N)c2nc(CSc3cccc4ccccc34)ccc2n1 = no (0)

Here is another compound to look at.
Query block: In the record for CN(Cc1ccc2nc(N)nc(N)c2n1)c1cccc2ccccc12 , is IC50 less than 50 nM?
Result block: yes (1)

---

# Test system: Pneumocystis carinii
# Assay text: Ratio of inhibitory concentration of rat liver and Pneumocystis carinii DHFR.
In plain terms, low Selectivity, meaning strictly below 0.2, gives Yes, and everything else gives No.

- Nc1nc(N)c2nc(CNc3c(Cl)cc(Cl)cc3Cl)ccc2n1: No
- CN(Cc1ccc2nc(N)nc(N)c2n1)c1cccc(Cl)c1: Yes
- COc1ccccc1N(C)Cc1ccc2nc(N)nc(N)c2n1: No

Query block: In the record for CN(Cc1ccc2nc(N)nc(N)c2n1)c1cc(Cl)ccc1Cl , is Selectivity less than 0.2?
Result block: No

Query block: In the record for Nc1nc(N)c2nc(CSc3cccc4ccccc34)ccc2n1 , is Selectivity less than 0.2?
Result block: No

Query block: In the record for COc1ccc(NCc2ccc3nc(N)nc(N)c3n2)cc1OC , is Selectivity less than 0.2?
Result block: Yes

Query block: In the record for COc1ccc(N(C)Cc2ccc3nc(N)nc(N)c3n2)cc1OC , is Selectivity less than 0.2?
Result block: Yes

Query block: In the record for Nc1nc(N)c2nc(CSc3ccc4ccccc4c3)ccc2n1 , is Selectivity less than 0.2?
Result block: No

Query block: In the record for CN(Cc1ccc2nc(N)nc(N)c2n1)c1ccc(C(=O)C(F)(F)F)cc1 , is Selectivity less than 0.2?
Result block: Yes

Query block: In the record for CN(Cc1ccc2nc(N)nc(N)c2n1)c1ccccc1Cl , is Selectivity less than 0.2?
Result block: No

Query block: In the record for CN(Cc1ccc2nc(N)nc(N)c2n1)c1cccc2ccccc12 , is Selectivity less than 0.2?
Result block: Yes

Query block: In the record for COc1cccc(NCc2ccc3nc(N)nc(N)c3n2)c1 , is Selectivity less than 0.2?
Result block: Yes

---

For each record, write down the corresponding IC50.
# Test target: Bifunctional dihydrofolate reductase-thymidylate synthase (Toxoplasma gondii, UniProt Q07422)
# Sequence (Q07422 whole entry): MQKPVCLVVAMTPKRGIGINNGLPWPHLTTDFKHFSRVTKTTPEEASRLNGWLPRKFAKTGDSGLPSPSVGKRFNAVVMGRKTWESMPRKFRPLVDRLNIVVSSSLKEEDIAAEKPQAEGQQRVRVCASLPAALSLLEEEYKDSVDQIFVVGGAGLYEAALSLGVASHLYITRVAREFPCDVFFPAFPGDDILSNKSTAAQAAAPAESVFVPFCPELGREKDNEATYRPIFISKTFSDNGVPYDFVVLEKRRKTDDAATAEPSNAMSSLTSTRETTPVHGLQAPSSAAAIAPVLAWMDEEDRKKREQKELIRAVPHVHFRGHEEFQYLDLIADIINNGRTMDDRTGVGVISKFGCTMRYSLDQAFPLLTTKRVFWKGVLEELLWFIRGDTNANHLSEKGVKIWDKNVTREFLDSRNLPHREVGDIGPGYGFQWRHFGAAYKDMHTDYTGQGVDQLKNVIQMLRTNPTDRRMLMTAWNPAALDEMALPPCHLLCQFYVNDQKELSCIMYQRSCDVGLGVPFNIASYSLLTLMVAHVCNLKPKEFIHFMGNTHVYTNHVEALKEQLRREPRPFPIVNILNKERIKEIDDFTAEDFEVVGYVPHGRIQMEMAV
Numbers only, in nM.

* Nc1nc(N)c2nc(CSc3ccccc3)ccc2n1 | 130
* Nc1nc(N)c2nc(CNc3ccccc3Cl)ccc2n1 | 110
* Nc1nc(N)c2nc(CNc3cccc4ccccc34)ccc2n1 | 26
* COc1ccc(N(C)Cc2ccc3nc(N)nc(N)c3n2)cc1 | 16
* CN(Cc1ccc2nc(N)nc(N)c2n1)c1c(Cl)cc(Cl)cc1Cl | 44
* CC(=O)c1ccc(NCc2ccc3nc(N)nc(N)c3n2)cc1 | 27
* COc1ccccc1N(C)Cc1ccc2nc(N)nc(N)c2n1 | 26

Query block: Given COc1cccc(NCc2ccc3nc(N)nc(N)c3n2)c1 , state its recorded IC50.
Result block: 100

---

# Test system: Pneumocystis carinii
# Assay text: Ratio of inhibitory concentration of rat liver and Pneumocystis carinii DHFR.
Decision: Selectivity >= 0.2 yields fulfilled, all other cases yield not fulfilled.

• Nc1nc(N)c2nc(CSc3ccccc3)ccc2n1 = fulfilled
• CN(Cc1ccc2nc(N)nc(N)c2n1)c1c(Cl)cc(Cl)cc1Cl = fulfilled
• COc1ccc(N(C)Cc2ccc3nc(N)nc(N)c3n2)cc1 = not fulfilled
• Nc1nc(N)c2nc(CNc3ccccc3Cl)ccc2n1 = fulfilled
• COc1ccccc1NCc1ccc2nc(N)nc(N)c2n1 = not fulfilled
• Nc1nc(N)c2nc(CNc3cc(Cl)c(Cl)c(Cl)c3)ccc2n1 = not fulfilled
• COc1ccc(NCc2ccc3nc(N)nc(N)c3n2)c(OC)c1 = not fulfilled
• Nc1nc(N)c2nc(CNc3cccc(Cl)c3)ccc2n1 = not fulfilled
• Nc1nc(N)c2nc(CSc3ccccc3)cnc2n1 = fulfilled
• COc1ccc(OC)c(NCc2ccc3nc(N)nc(N)c3n2)c1 = not fulfilled

Query block: Does C#CCN(Cc1ccc2nc(N)nc(N)c2n1)c1ccc(C(=O)C(F)(F)F)cc1 have a reported Selectivity of at least 0.2?
Result block: not fulfilled

Query block: Does CN(Cc1ccc2nc(N)nc(N)c2n1)c1ccc(Cl)c(Cl)c1 have a reported Selectivity of at least 0.2?
Result block: fulfilled

Query block: Does CC(=O)c1ccc(NCc2ccc3nc(N)nc(N)c3n2)cc1 have a reported Selectivity of at least 0.2?
Result block: not fulfilled

Query block: Does COc1ccc(OC)c(N(C)Cc2ccc3nc(N)nc(N)c3n2)c1 have a reported Selectivity of at least 0.2?
Result block: fulfilled

Query block: Does Nc1nc(N)c2nc(CNc3cc(Cl)ccc3Cl)ccc2n1 have a reported Selectivity of at least 0.2?
Result block: not fulfilled
